Recorded values, source patent US20160326240A1.

Consider the following binders; for each one, report its kon.
Target: T1, hRGMa-His (human, UniProt Q96B86 48-422, limits assumed)
T1 construct: also called human RGMa (BIAcore); not shown: His tag
T1 sequence: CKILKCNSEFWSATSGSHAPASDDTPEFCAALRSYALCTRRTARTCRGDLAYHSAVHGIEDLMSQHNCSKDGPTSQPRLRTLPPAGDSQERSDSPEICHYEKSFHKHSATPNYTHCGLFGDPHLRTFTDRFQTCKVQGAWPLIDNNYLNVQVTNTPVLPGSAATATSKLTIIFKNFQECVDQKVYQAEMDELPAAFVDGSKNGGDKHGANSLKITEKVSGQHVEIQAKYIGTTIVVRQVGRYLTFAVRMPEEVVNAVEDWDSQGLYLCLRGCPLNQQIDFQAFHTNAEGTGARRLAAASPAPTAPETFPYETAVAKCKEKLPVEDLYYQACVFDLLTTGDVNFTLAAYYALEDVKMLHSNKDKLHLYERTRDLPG
Test: BIAcore
Give bare numbers, in M⁻¹ s⁻¹.

Observe how each entry below is paired with its result.
binder="AE12-1 (antibody, V domains shown, lambda light chain) VH: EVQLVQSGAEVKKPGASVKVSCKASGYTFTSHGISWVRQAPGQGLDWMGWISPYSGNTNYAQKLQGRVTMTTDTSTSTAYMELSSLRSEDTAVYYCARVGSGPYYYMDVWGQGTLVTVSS VL: QSALTQPRSVSGSPGQSVTISCTGTSSSVGDSIYVSWYQQHPGKAPKLMLYDVTKRPSGVPDRFSGSKSGNTASLTISGLQAEDEADYYCCSYAGTDTLFGGGTKVTVL" metric=kon reported_value=31000
binder="AE12-1-L (antibody, V domains shown, AE12-1 variant; IgG; also called AE-12-L) VH: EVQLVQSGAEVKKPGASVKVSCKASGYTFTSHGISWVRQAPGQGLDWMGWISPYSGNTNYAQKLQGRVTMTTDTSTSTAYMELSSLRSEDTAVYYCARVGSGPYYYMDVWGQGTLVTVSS VL: QSALTQPRSVSGSPGQSVTISCTGTSSSVGDSIYVSWYQQHPGKAPKLMLYDVTKRPSGVPDRFSGSKSGNTASLTISGLQAEDEADYYCLSYAGTDTLFGGGTKVTVL" metric=kon reported_value=38000
binder="AE12-1-I (antibody, V domains shown, AE12-1 variant; IgG) VH: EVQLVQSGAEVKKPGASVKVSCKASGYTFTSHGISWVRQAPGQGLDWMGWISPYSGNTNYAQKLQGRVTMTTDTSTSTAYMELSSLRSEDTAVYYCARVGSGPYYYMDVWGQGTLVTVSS VL: QSALTQPRSVSGSPGQSVTISCTGTSSSVGDSIYVSWYQQHPGKAPKLMLYDVTKRPSGVPDRFSGSKSGNTASLTISGLQAEDEADYYCISYAGTDTLFGGGTKVTVL" metric=kon reported_value=30000

Quick check: kon of AE12-1-Y (antibody, V domains shown, AE12-1 variant; IgG) VH: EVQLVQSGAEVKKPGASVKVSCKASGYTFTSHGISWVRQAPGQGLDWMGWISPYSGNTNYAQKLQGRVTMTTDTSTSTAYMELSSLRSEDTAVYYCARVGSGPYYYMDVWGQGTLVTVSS VL: QSALTQPRSVSGSPGQSVTISCTGTSSSVGDSIYVSWYQQHPGKAPKLMLYDVTKRPSGVPDRFSGSKSGNTASLTISGLQAEDEADYYCYSYAGTDTLFGGGTKVTVL ?
22000
